- assay_method_text: Apparent permeability in porcine brain endothelial cells
- Format: ADME, cell-based, Sus scrofa, Endothelial cell
- condition: pig
Measured Papp of individual entries

# molecule, Papp
records = [
    ("COC(=O)CCNC(=O)[C@@H]1O[P@@](=O)(OCOC(=O)c2cc(C(C)(C)C)n[nH]2)OCC1(C)C", "5.3 ×10⁻⁶ cm/s"),
    ("COC(=O)CCNC(=O)[C@@H]1O[P@@](=O)(OCOC(=O)c2scnc2C)OCC1(C)C", "5.1 ×10⁻⁶ cm/s"),
    ("CCc1cc(C(=O)OCO[P@@]2(=O)OCC(C)(C)[C@H](C(=O)NCCC(=O)OC)O2)n(C)n1", "11.8 ×10⁻⁶ cm/s"),
    ("COC(=O)CCNC(=O)[C@@H]1O[P@](=O)(Oc2ccc(F)cc2)OCC1(C)C", "16 ×10⁻⁶ cm/s"),
]
